Numbers sourced from patent US3960877A.

Tested on: Crabgrass
method-description: Preemergence herbicidal activity, % control of plant growth
Type: in vivo
test-context: Digitaria sanguinalis, pre-emergence, 504 h, 16 lb/acre, about 3 weeks
Decide by pest or weed control at 17933.6 g/ha: equal to or exceeding 90% means MET, less means NOT MET.

| compound | cat |
| --- | --- |
| CCCCn1c(=O)[nH]c2nccnc2c1=O | NOT MET |
| CCn1c(=O)[nH]c2cccnc2c1=O | MET |
| CCCCC(CC)Cn1c(=O)[nH]c2cccnc2c1=O (centres unmarked) | NOT MET |
| CC(C)n1c(=O)[nH]c2cccnc2c1=O | MET |
| O=c1[nH]c2cccnc2c(=O)n1C1CCCCC1 | MET |
| O=c1[nH]c(=O)c2ncccc2[nH]1 [pyrido[3,2-d]pyrimidine-2,4(1H,3H)-dione, reference compound] | NOT MET |
| O=c1[nH]c2nccnc2c(=O)n1C1CCCCC1 | NOT MET |
| CCC(C)n1c(=O)[nH]c2nccnc2c1=O (centres unmarked) | MET |
| O=c1[nH]c2cccnc2c(=O)n1C1CCCCCCC1 | MET |
